These data points were gathered from PubChem BioAssay AID1159565.

Documented pIC50 across a set of compounds
- Test system: T. cruzi-infected H9C2 cardiomyocytes, high-content imaging
- measurement notes: intracellular T. cruzi amastigote inhibition, imaging, H9C2 host cardiomyocytes, host toxicity (AID 1159565);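 also: infected cells incubated 72 h after plating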
- condition details: measured here: amastigotes per cell
Please treat pIC50 as minus the base-10 logarithm of the molar concentration.

Given the entry COc1ccc(Nc2nc(-c3ccccn3)cc(N3CCCC(O)C3)n2)cc1 (stereo not given) , report its measured pIC50.
5.10

Given the entry O=C(c1cccc(Nc2ncc(-c3ccc4c(c3)OCO4)cn2)c1)N1CCSC1 , report its measured pIC50.
6.70

Given the entry CCCn1c(NC(=O)Cc2ccc(Cl)cc2)nc2ccccc21 , report its measured pIC50.
5.89

---
Given the entry COc1cnc2ccc(=O)n(CCN3CCC(NC(=O)c4ccc(Cl)cc4)CC3)c2c1 , report its measured pIC50.
7.10

Given the entry Cc1cc(NC(=O)c2ccc([N+](=O)[O-])s2)ccc1Br , report its measured pIC50.
6.60

Given the entry CC(C)c1nn(-c2nc(N)nc(-c3ccccn3)n2)c(N)c1C1CCCCC1 , report its measured pIC50.
5.89

Given the entry O=C1CCCCCC1(Cc1cnc[nH]1)c1ccc(Cl)cc1Cl (stereo not given) , report its measured pIC50.
6.49

Given the entry CN(CC1CCCO1)S(=O)(=O)c1ccc(C(=O)Nc2nc(-c3ccccn3)cs2)cc1 (stereo not given) , report its measured pIC50.
5.89

Given the entry O=C(NCC(c1cccnc1)N1CCc2ccccc2C1)C(=O)Nc1cccc(Cl)c1 (stereo not given) , report its measured pIC50.
7.20

Given the entry Cc1cc(Br)cc(C(=O)c2c(C(C)C)c(=O)[nH]c(=O)n2Cc2ccnc(N)c2)c1 , report its measured pIC50.
6.60

###

- System: T. cruzi-infected H9C2 cardiomyocytes, high-content imaging
- measurement notes: intracellular T. cruzi amastigote inhibition, imaging, H9C2 host cardiomyocytes, host toxicity (AID 1159565);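 also: infected cells incubated 72 h after plating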
- condition details: measured here: amastigotes per cell
test readout: pIC50
Please treat pIC50 as minus the base-10 logarithm of the molar concentration.

Given the entry CN1CCC(N(C)c2nccc(N3CCN(C(=O)c4cccc(-c5cccnc5)c4)CC3)n2)CC1 , report its measured pIC50.
6.00

Given the entry COc1cnc2ccc(=O)n(CCN3CCC(NC/C=C/c4cc(F)ccc4F)CC3)c2c1 , report its measured pIC50.
8.00

###

- Test system: T. cruzi-infected H9C2 cardiomyocytes, high-content imaging
- measurement notes: intracellular T. cruzi amastigote inhibition, imaging, H9C2 host cardiomyocytes, host toxicity (AID 1159565);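 also: infected cells incubated 72 h after plating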
- condition details: measured here: amastigotes per cell
test readout: pIC50
Please treat pIC50 as minus the base-10 logarithm of the molar concentration.

Here is how some compounds turned out for pIC50.
Please provide the recorded pIC50 for CCN(CC)c1nc(N(C)C)nc2c1CN(Cc1ccccc1)CC2 , tested on T. cruzi-infected H9C2 cardiomyocytes, high-content imaging.
5.40

Please provide the recorded pIC50 for Cn1c(CN2CCN(c3ncc(C(F)(F)F)cc3Cl)CC2)nc2ccncc21 , tested on T. cruzi-infected H9C2 cardiomyocytes, high-content imaging.
6.00

Please provide the recorded pIC50 for CCC(=O)Nc1ccc(-c2nc3ccc(Cl)cc3[nH]2)cc1 , tested on T. cruzi-infected H9C2 cardiomyocytes, high-content imaging.
6.30

Please provide the recorded pIC50 for CN1CCN(c2nc(-c3ccc(Cl)cc3)c3c(N)n(C)nc3n2)CC1 , tested on T. cruzi-infected H9C2 cardiomyocytes, high-content imaging.
6.10

Please provide the recorded pIC50 for Cc1nc2c(-c3cccs3)c(C)nn2c(NCCO)c1C , tested on T. cruzi-infected H9C2 cardiomyocytes, high-content imaging.
4.80

Please provide the recorded pIC50 for COc1ccc2ncc(Cl)c(CCN3CC[C@@H](NCc4cc5c(cn4)OCS5)[C@H](O)C3)c2n1 , tested on T. cruzi-infected H9C2 cardiomyocytes, high-content imaging.
7.20

Please provide the recorded pIC50 for COc1cccc(C(=O)[C@H]2C[C@@H]2CN(Cc2cccnc2)Cc2cccnc2)c1 , tested on T. cruzi-infected H9C2 cardiomyocytes, high-content imaging.
7.30

Please provide the recorded pIC50 for Cn1cc(CN2CCN(c3ccc4c(c3)CCN(C(=O)[C@H]3C[C@@H]3c3ccccc3)CC4)CC2)cn1 , tested on T. cruzi-infected H9C2 cardiomyocytes, high-content imaging.
6.10

---
Please provide the recorded pIC50 for Nc1ncnc2c1ncn2[C@@H]1O[C@H](CO)C[C@H]1O , tested on T. cruzi-infected H9C2 cardiomyocytes, high-content imaging.
5.89

Please provide the recorded pIC50 for Cc1cccc(NS(=O)(=O)c2cnc3sc(C)cn3c2=O)c1 , tested on T. cruzi-infected H9C2 cardiomyocytes, high-content imaging.
6.00

###

- Test system: T. cruzi-infected H9C2 cardiomyocytes, high-content imaging
- measurement notes: intracellular T. cruzi amastigote inhibition, imaging, H9C2 host cardiomyocytes, host toxicity (AID 1159565);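 also: infected cells incubated 72 h after plating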
- condition details: measured here: H9C2 host cell toxicity
test readout: pIC50
Please treat pIC50 as minus the base-10 logarithm of the molar concentration.

Given the entry Cc1cccc(N2CCCN(Cc3c[nH]c4ccccc34)CC2)n1 , report its measured pIC50.
5.60

Given the entry CCNc1cc(-c2ccccn2)nc(Nc2ccccc2)n1 , report its measured pIC50.
6.60

Given the entry Cc1ccc2onc(Nc3ccnc(Nc4cccc(S(C)(=O)=O)c4)n3)c2c1 , report its measured pIC50.
5.30

Given the entry Cc1ccc(NC(=O)c2ccc([N+](=O)[O-])s2)cc1S(=O)(=O)N1CCOCC1 , report its measured pIC50.
5.30

Given the entry CCCc1cc(N)nc(-c2cc(CCC)cc(N)n2)c1 , report its measured pIC50.
6.70

Next up:
Given the entry Cc1cc(NC(=O)CC2CCCCC2)n(-c2nc3c(c(=O)[nH]2)CCC3)n1 , report its measured pIC50.
5.40

###

- Test system: T. cruzi-infected H9C2 cardiomyocytes, high-content imaging
- measurement notes: intracellular T. cruzi amastigote inhibition, imaging, H9C2 host cardiomyocytes, host toxicity (AID 1159565);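 also: infected cells incubated 72 h after plating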
- condition details: measured here: H9C2 host cell toxicity
pIC50: −log10 of the molar value.
test readout: pIC50

Here is how some compounds turned out for pIC50.
Given the entry c1ccc(-c2nc(NC3CCCC3)c3ccccc3n2)nc1 , report its measured pIC50.
6.30

Given the entry COc1ccc(C(C)N(C)c2ncc3c(N)nc(N)nc3n2)cc1F (stereo unspecified) , report its measured pIC50.
4.60

Given the entry CS(=O)(=O)c1ccccc1C(=O)N(Cc1ccccc1)c1ccccc1 , report its measured pIC50.
< 4.30

Given the entry O=C(NC1CCN(C2Cc3ccc(NS(=O)(=O)c4cc(F)cc(F)c4)cc3C2)CC1)C1CC1 (stereo unspecified) , report its measured pIC50.
< 4.30

Given the entry CNS(=O)(=O)c1ccccc1Nc1nc(Nc2ccnn2C)ncc1Cl , report its measured pIC50.
6.80

---
Given the entry Cc1[nH]n2c(=O)c3c(nc2c1-c1ccc(F)cc1)CCCC3 , report its measured pIC50.
< 4.30

Given the entry CS(=O)(=O)N1CCC(Nc2ncc(Br)c(Nc3cccc(F)c3C(N)=O)n2)CC1 , report its measured pIC50.
6.80

###

Documented IC50 across a set of compounds
- System: T. cruzi-infected H9C2 cardiomyocytes, high-content imaging
- measurement notes: intracellular T. cruzi amastigote inhibition, imaging, H9C2 host cardiomyocytes, host toxicity (AID 1159565);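 also: infected cells incubated 72 h after plating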
- condition details: measured here: amastigotes per cell
Your answer is read as µM, so omit the unit and give the number.

Here is how some compounds turned out for IC50.
Given the entry O=C(Nc1ccc(C(F)(F)F)cc1)Nc1cccc([N+](=O)[O-])c1 , report its measured IC50.
0.79

Given the entry COc1cc(Nc2nccc(Nc3onc(C)c3C)n2)cc(S(=O)(=O)C2CCOCC2)c1 , report its measured IC50.
13

Given the entry Cc1cc(-c2cccc3ccccc23)nc2nc(N)nc(N)c12 , report its measured IC50.
32

Given the entry O=C(N1CCc2ccccc2CC1)C1(C(=O)N2CCC(n3c(=O)[nH]c4ncccc43)CC2)CC1 , report its measured IC50.
0.63

---
Given the entry Cc1ccc(NC(=O)c2ccnc(N3CCCC3)c2)cc1-c1cc(C(N)=O)ccc1C , report its measured IC50.
3.2

Given the entry O=[N+]([O-])c1ccc(-c2nnn(-c3cccnc3)n2)o1 , report its measured IC50.
0.063

Given the entry N#Cc1ccccc1S(=O)(=O)N1CCN(C(=O)CNC(=O)c2ccc3c(c2)OCO3)CC1 , report its measured IC50.
0.63

###

- Tested on: T. cruzi-infected H9C2 cardiomyocytes, high-content imaging
- measurement notes: intracellular T. cruzi amastigote inhibition, imaging, H9C2 host cardiomyocytes, host toxicity (AID 1159565);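 also: infected cells incubated 72 h after plating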
- condition details: measured here: H9C2 host cell toxicity
Documented IC50 across a set of compounds
Your answer is read as µM, so omit the unit and give the number.

Here is how some compounds turned out for IC50.
Please provide the recorded IC50 for CC(C)Nc1nc(Cl)nc2ccccc12 , tested on T. cruzi-infected H9C2 cardiomyocytes, high-content imaging.
7.9

Please provide the recorded IC50 for c1ccc(Nc2nc3ccccc3[nH]2)nc1 , tested on T. cruzi-infected H9C2 cardiomyocytes, high-content imaging.
10

Please provide the recorded IC50 for COc1ccc(-c2csc(NC(=O)c3ccc([N+](=O)[O-])s3)n2)cc1 , tested on T. cruzi-infected H9C2 cardiomyocytes, high-content imaging.
32

---
Please provide the recorded IC50 for O=C(NCCc1csc(-c2cccc(F)c2)n1)c1ccco1 , tested on T. cruzi-infected H9C2 cardiomyocytes, high-content imaging.
10

Please provide the recorded IC50 for COc1ccc(Nc2nc(NC3CCC(O)CC3)ncc2Br)c(C(N)=O)c1 (stereo not drawn) , tested on T. cruzi-infected H9C2 cardiomyocytes, high-content imaging.
0.79

Please provide the recorded IC50 for O=C1COC(c2ccccc2)(c2ccccc2)CN1C1CCN(Cc2ccc(-n3ccnc3)cc2)CC1 , tested on T. cruzi-infected H9C2 cardiomyocytes, high-content imaging.
32
